The measurements presented in this section are drawn from patent US20200247894A1.

Target: T1, Macaca fascicularis IL2Rγ extracellular domain expressed with a C-terminal myc-myc-hexahistidine tag (Macaca fascicularis)
T1 construct: also called mfIL-2Rg-MMH; mfIL-2RG-MMH
T1 chain: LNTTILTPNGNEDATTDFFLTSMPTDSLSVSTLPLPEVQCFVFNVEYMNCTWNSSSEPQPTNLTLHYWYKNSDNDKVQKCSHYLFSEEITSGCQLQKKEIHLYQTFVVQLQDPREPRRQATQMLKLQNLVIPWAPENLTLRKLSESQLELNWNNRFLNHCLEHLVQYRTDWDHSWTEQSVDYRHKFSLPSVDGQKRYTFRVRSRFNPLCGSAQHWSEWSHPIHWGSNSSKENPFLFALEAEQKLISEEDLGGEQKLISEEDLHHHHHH
Experiment: SPR Biacore 4000, mAb captured by anti-hFc, 37C, dissociation in PBS-T pH 7.4
parameter: koff (s⁻¹)
All answers are understood in s⁻¹, so give the number only.

Solved entries:
H4H12858P (antibody, human IgG4 S228P, kappa, V domains shown, anti-IL2Rγ monoclonal antibody expressed with human IgG4 Fc; also called REGN9433) VH: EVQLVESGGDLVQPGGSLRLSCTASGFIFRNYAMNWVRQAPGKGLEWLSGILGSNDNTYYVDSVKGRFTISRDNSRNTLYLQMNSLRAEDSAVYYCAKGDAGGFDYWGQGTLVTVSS VL: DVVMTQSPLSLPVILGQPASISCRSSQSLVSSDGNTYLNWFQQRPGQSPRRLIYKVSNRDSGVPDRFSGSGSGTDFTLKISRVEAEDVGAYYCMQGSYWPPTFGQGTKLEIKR ... 0.000542
H4H13538P (antibody, human IgG4 S228P, kappa, V domains shown, anti-IL2Rγ monoclonal antibody expressed with human IgG4 Fc) VH: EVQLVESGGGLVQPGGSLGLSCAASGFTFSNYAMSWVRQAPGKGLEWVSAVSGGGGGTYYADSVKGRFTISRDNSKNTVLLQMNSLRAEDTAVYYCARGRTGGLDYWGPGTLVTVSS VL: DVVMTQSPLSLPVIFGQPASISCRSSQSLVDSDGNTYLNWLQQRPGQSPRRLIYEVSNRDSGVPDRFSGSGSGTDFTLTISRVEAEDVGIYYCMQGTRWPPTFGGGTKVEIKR ... 0.00051
H4H12886P (antibody, human IgG4 S228P, kappa, V domains shown, anti-IL2Rγ monoclonal antibody expressed with human IgG4 Fc) VH: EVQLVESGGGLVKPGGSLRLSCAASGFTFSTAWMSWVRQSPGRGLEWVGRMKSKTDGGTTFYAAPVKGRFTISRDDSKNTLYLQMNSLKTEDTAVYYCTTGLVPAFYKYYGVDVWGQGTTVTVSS VL: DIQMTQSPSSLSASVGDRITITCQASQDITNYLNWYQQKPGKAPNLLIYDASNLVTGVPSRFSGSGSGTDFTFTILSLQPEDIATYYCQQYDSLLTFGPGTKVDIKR ... 0.000471
H4H12884P (antibody, human IgG4 S228P, kappa, V domains shown, anti-IL2Rγ monoclonal antibody expressed with human IgG4 Fc) VH: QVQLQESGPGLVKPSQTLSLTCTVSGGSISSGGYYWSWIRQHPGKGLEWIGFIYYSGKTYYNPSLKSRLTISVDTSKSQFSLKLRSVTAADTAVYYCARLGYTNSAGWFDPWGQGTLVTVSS VL: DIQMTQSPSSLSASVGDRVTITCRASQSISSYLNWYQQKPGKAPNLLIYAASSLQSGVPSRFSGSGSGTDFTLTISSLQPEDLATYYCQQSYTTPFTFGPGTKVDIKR ... 0.00147
H4H13541P (antibody, human IgG4 S228P, kappa, V domains shown, anti-IL2Rγ monoclonal antibody expressed with human IgG4 Fc) VH: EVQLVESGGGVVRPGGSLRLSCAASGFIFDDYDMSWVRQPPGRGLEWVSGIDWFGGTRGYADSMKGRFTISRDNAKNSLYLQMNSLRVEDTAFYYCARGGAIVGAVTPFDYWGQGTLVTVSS VL: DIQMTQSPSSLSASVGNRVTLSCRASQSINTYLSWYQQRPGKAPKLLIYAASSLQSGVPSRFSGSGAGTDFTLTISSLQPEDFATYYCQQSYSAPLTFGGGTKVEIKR ... 0.000512

# input for lookup
Determine its reported koff: H4H12900P (antibody, human IgG4 S228P, kappa, V domains shown, anti-IL2Rγ monoclonal antibody expressed with human IgG4 Fc) VH: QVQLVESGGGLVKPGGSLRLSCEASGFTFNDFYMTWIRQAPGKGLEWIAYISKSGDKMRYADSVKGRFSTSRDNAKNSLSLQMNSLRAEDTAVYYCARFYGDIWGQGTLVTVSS VL: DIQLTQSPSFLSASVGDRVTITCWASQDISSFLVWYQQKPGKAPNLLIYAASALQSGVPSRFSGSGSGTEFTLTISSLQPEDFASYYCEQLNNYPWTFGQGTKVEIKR
0.000623
